FYI, the data here is from paper PMC9884086.

target: UniProt P51787; assay: Ion channel profile, Iks
pIC50: −log10 of the molar value.
endpoint label: pIC50

Look at this molecule and give its reported pIC50. Cc1ccc([C@H]2C[C@@H]2COc2cc(NCc3nnc(C)s3)nc(C)n2)nc1
< 4.52
